Below: a set of entries, each annotated with reported pIC50.
# method_summary: Anticancer activity against human M85 cells after 48 hrs by MTT assay
# Type: functional, cell-based
# assay_setup: Homo sapiens, M85, 48 h
pIC50: −log10 of the molar value.

compound | pIC50
Cc1cc2c(C(C)C)c(O)c(O)cc2c(O)c1-c1c(C)cc2c(C(C)C)c(O)c(O)cc2c1O | < 4.10

Look up pIC50: COC(=O)[C@H](Cc1ccccc1)N/C=C1\C(=O)C(O)=C(C(C)C)c2cc(C)c(-c3c(C)cc4c(c3O)/C(=C/N[C@@H](Cc3ccccc3)C(=O)OC)C(=O)C(O)=C4C(C)C)c(O)c21 (stereo in doubt; 7a)
< 4.10

Field request: pIC50 | item: Cc1cc2c(c(O)c1-c1c(C)cc3c(c1O)/C(=C/NCCc1ccccc1)C(=O)C(O)=C3C(C)C)/C(=C/NCCc1ccccc1)C(=O)C(O)=C2C(C)C (stereo in doubt; 3a)
< 4.10

Provenance of the data: ChEMBL document CHEMBL1154047
